Target: T1, human PDGFRb.hFc (human)
T1 construct: Soluble dimeric construct with human Fc; also called hPDGFRb.hFc
Experiment: SPR, mAb captured, 25 C
Procedure: Antibodies, expressed as either mouse Fc (prefix H1M; H2M) or human Fc (prefix H4H), were captured on their respective anti-Fc sensor surfaces (Mab capture format). […] Kinetic association (kₐ) and dissociation (kd) rate constants were determined by processing and fitting the data to a 1:1 binding model using Scrubber 2.0 curve fitting software.
measured.attribute: Kd (nM)
Write the answer as a number in nM, unit excluded.

For the binder H4H3102S (antibody, human IgG4, V domains shown, human IgG4 Fc (H4H prefix)) VH: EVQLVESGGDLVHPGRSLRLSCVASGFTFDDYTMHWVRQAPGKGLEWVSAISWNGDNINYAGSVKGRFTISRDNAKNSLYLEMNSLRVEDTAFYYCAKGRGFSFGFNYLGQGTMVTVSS VL: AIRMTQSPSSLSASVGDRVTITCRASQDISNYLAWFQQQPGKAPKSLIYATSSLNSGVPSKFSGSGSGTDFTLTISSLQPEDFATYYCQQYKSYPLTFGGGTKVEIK , report Kd.
0.39

Please indicate Kd recorded for H4H3106S (antibody, human IgG4, V domains shown, human IgG4 Fc (H4H prefix)) VH: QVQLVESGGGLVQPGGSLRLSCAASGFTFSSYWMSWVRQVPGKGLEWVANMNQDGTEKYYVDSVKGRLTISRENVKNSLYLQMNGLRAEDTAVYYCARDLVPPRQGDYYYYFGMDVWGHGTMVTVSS VL: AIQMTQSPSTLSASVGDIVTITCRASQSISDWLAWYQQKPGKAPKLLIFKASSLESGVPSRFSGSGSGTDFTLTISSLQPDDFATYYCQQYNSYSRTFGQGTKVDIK
0.686

Consider the binder H4H3103S (antibody, human IgG4, V domains shown, human IgG4 Fc (H4H prefix)) VH: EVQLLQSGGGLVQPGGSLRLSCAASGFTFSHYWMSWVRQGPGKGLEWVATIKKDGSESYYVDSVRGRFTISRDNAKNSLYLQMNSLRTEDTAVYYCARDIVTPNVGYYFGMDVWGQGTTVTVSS VL: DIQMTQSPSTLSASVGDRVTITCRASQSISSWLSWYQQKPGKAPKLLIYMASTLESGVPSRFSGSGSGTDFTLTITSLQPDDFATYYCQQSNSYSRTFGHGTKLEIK . State its measured Kd.
0.264

Identify Kd associated with the binder H4H3104S (antibody, human IgG4, V domains shown, human IgG4 Fc (H4H prefix)) VH: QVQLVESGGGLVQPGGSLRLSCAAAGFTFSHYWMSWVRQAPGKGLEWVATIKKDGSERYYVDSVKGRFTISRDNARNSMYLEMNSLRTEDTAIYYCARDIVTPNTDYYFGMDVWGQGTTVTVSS VL: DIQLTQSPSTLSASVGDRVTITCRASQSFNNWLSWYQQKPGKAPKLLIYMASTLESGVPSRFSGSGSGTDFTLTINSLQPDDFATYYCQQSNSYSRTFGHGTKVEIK
0.304

Respond only with Kd recorded for H4H3095S (antibody, human IgG4, V domains shown, human IgG4 Fc (H4H prefix)) VH: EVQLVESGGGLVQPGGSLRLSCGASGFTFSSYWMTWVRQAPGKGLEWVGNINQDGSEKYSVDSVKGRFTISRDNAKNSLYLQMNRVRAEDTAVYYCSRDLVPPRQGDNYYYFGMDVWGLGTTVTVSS VL: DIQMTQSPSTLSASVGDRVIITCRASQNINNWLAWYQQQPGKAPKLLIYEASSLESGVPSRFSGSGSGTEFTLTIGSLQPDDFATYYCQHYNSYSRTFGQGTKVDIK
0.72

Tell us which Kd value is on record for H4H3096S (antibody, human IgG4, V domains shown, human IgG4 Fc (H4H prefix)) VH: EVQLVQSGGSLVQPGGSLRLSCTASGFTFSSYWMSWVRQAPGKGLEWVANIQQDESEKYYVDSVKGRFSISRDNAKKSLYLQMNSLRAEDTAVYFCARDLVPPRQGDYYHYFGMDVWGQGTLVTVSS VL: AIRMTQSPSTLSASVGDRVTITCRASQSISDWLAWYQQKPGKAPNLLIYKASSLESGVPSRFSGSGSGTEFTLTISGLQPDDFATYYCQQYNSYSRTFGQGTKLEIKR
1.17

Give a short answer stating reported Kd for H4H3374N (antibody, human IgG4, V domains shown, human IgG4 Fc (H4H prefix)) VH: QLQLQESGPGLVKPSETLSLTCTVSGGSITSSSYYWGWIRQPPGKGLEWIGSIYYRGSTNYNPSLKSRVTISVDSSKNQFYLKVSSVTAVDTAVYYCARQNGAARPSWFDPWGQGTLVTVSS VL: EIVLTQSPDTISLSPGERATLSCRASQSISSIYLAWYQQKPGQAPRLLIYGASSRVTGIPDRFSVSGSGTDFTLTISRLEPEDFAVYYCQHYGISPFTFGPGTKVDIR .
0.148

Where do these numbers come from? They come from patent US20170210813A1.
